# systemName: mouse melanocortin-1 receptor (mouse, UniProt Q01727 1-315)
# Sequence (Q01727 whole entry): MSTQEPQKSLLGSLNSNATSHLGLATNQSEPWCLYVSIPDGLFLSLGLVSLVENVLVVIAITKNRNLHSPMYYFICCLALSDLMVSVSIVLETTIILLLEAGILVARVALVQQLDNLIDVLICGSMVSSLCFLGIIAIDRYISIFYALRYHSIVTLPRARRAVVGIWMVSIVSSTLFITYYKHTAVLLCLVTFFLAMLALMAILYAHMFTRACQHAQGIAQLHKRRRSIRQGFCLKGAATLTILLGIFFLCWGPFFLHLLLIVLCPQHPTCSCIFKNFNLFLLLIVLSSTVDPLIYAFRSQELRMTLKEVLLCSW
# experimentSummary: cell-based or functional assay
Square brackets hold non-standard residues; d marks the D form. Nle = CCCC[C@H](N)C(=O)O
Each entry below carries its reported agonist EC50 (cAMP AlphaScreen).

PRFFXAFP (head-to-tail cyclic; Abu at 5; DPro at 8) [c[Pro-Arg-Phe-Phe-Abu-Ala-Phe-DPro]] : > 100 µM
cyclo(PRFFEAF[dP]) [c[Pro-Arg-Phe-Phe-Glu-Ala-Phe-DPro]] : 20.5 µM
cyclo(PRFFHAF[dP]) (SMILES C[C@@H]1NC(=O)[C@H](Cc2c[nH]cn2)NC(=O)[C@H](Cc2ccccc2)NC(=O)[C@H](Cc2ccccc2)NC(=O)[C@H](CCCNC(=N)N)NC(=O)[C@@H]2CCCN2C(=O)[C@H]2CCCN2C(=O)[C@H](Cc2ccccc2)NC1=O) [c[Pro-Arg-Phe-Phe-His-Ala-Phe-DPro]] : > 100 µM
cyclo(PRFF[Nle]AF[dP]) [c[Pro-Arg-Phe-Phe-Nle-Ala-Phe-DPro]] : > 100 µM
cyclo(PRFFNHF[dP]) (SMILES N=C(N)NCCC[C@@H]1NC(=O)[C@@H]2CCCN2C(=O)[C@H]2CCCN2C(=O)[C@H](Cc2ccccc2)NC(=O)[C@H](Cc2c[nH]cn2)NC(=O)[C@H](CC(N)=O)NC(=O)[C@H](Cc2ccccc2)NC(=O)[C@H](Cc2ccccc2)NC1=O) [c[Pro-Arg-Phe-Phe-Asn-His-Phe-DPro]] : 2.6 µM

Request: I'd like to know its agonist EC50 (cAMP AlphaScreen). The binder in question is cyclo(PRFFNGF[dP]) (SMILES N=C(N)NCCC[C@@H]1NC(=O)[C@@H]2CCCN2C(=O)[C@H]2CCCN2C(=O)[C@H](Cc2ccccc2)NC(=O)CNC(=O)[C@H](CC(N)=O)NC(=O)[C@H](Cc2ccccc2)NC(=O)[C@H](Cc2ccccc2)NC1=O) [c[Pro-Arg-Phe-Phe-Asn-Gly-Phe-DPro]]
Result: > 100 µM

Request: I'd like to know its agonist EC50 (cAMP AlphaScreen). The binder in question is cyclo(PRFFNAA[dP]) (SMILES C[C@@H]1NC(=O)[C@H](CC(N)=O)NC(=O)[C@H](Cc2ccccc2)NC(=O)[C@H](Cc2ccccc2)NC(=O)[C@H](CCCNC(=N)N)NC(=O)[C@@H]2CCCN2C(=O)[C@H]2CCCN2C(=O)[C@H](C)NC1=O) [c[Pro-Arg-Phe-Phe-Asn-Ala-Ala-DPro]]
Result: > 100 µM

Request: I'd like to know its agonist EC50 (cAMP AlphaScreen). The binder in question is cyclo(PRFFSAF[dP]) [c[Pro-Arg-Phe-Phe-Ser-Ala-Phe-DPro]]
Result: > 100 µM

Request: I'd like to know its agonist EC50 (cAMP AlphaScreen). The binder in question is cyclo(PRFFAAF[dP]) [c[Pro-Arg-Phe-Phe-Ala-Ala-Phe-DPro]]
Result: > 100 µM
